biological target: human ORL-1 receptor (opioid receptor like 1) (human, UniProt P41146 1-370); assay: cell-based or functional assay
Sequence (P41146 whole entry): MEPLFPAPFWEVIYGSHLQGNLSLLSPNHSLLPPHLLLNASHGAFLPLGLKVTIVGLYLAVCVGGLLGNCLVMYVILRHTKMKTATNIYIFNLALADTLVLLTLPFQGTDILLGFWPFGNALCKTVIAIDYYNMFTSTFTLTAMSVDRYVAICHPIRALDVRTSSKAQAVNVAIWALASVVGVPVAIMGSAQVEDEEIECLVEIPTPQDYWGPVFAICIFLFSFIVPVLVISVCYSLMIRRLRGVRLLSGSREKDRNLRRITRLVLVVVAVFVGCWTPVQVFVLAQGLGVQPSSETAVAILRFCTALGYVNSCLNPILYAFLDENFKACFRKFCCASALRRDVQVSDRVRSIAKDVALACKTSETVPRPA
* marks the point of attachment. Heptanoyl = CCCCCCC(=O)*; Hexanoyl = CCCCCC(=O)*; Propionyl = CCC(=O)*; Butyryl = CCCC(=O)*
Observation type: [^35S]GTPγS Binding Percent Stimulation (%)
Please respond with the number in % and leave the unit unwritten.

Form field [^35S]GTPγS Binding Percent Stimulation, entry Propionyl-RYYRWR-NH2 (SMILES CCC(=O)N[C@@H](CCCNC(=N)N)C(=O)N[C@@H](Cc1ccc(O)cc1)C(=O)N[C@@H](Cc1ccc(O)cc1)C(=O)N[C@@H](CCCNC(=N)N)C(=O)N[C@@H](Cc1c[nH]c2ccccc12)C(=O)N[C@@H](CCCNC(=N)N)C(N)=O, see recheck) [IV-16-C Propionyl-RYYRWR-NH2] : 82

Form field [^35S]GTPγS Binding Percent Stimulation, entry Ac-RYYRWR-NH2 (also called parent peptide) [Ac-RYYRWR-NH2] : 100

Form field [^35S]GTPγS Binding Percent Stimulation, entry Hexanoyl-RYYRWR-NH2 (SMILES CCCCCC(=O)N[C@@H](CCCNC(=N)N)C(=O)N[C@@H](Cc1ccc(O)cc1)C(=O)N[C@@H](Cc1ccc(O)cc1)C(=O)N[C@@H](CCCNC(=N)N)C(=O)N[C@@H](Cc1c[nH]c2ccccc12)C(=O)N[C@@H](CCCNC(=N)N)C(N)=O) [IV-17-C Hexanoyl-RYYRWR-NH2] : 18

Form field [^35S]GTPγS Binding Percent Stimulation, entry Butyryl-RYYRWR-NH2 (SMILES CCCC(=O)N[C@@H](CCCNC(=N)N)C(=O)N[C@@H](Cc1ccc(O)cc1)C(=O)N[C@@H](Cc1ccc(O)cc1)C(=O)N[C@@H](CCCNC(=N)N)C(=O)N[C@@H](Cc1c[nH]c2ccccc12)C(=O)N[C@@H](CCCNC(=N)N)C(N)=O) [IV-15-A Butryl-RYYRWR-NH2] : 63

Form field [^35S]GTPγS Binding Percent Stimulation, entry Heptanoyl-RYYRWR-NH2 (SMILES CCCCCCC(=O)N[C@@H](CCCNC(=N)N)C(=O)N[C@@H](Cc1ccc(O)cc1)C(=O)N[C@@H](Cc1ccc(O)cc1)C(=O)N[C@@H](CCCNC(=N)N)C(=O)N[C@@H](Cc1c[nH]c2ccccc12)C(=O)N[C@@H](CCCNC(=N)N)C(N)=O, see recheck) [IV-18-C Heptanoyl-RYYRWR-NH2] : 54
